# credit: ChEMBL document CHEMBL5705885

- subject-of-test: Mitogen-activated protein kinase 12 (Homo sapiens, UniProt P53778)
- Sequence (P53778 whole entry): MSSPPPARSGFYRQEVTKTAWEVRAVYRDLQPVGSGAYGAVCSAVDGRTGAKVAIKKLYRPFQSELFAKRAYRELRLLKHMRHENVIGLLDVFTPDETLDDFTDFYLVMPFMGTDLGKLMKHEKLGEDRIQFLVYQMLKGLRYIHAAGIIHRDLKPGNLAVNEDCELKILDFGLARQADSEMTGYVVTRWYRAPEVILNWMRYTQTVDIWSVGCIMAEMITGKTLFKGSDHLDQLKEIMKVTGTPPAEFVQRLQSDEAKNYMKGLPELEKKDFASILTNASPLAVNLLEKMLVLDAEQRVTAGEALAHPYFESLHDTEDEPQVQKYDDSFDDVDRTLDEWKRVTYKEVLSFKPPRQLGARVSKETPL
- test-details: Inhibition of MAPK12 (unknown origin)
pIC50: −log10 of the molar value.
measured-metric: pIC50

Query string: Tell me the measured pIC50 of N#CCNC(=O)c1ccc(-c2ccnc(Nc3ccc(N4CCOCC4)cc3)n2)cc1 [MOMELOTINIB] , please.
Result string: < 6.00

====

- subject-of-test: UniProt:P29320
- Sequence (P29320 whole entry): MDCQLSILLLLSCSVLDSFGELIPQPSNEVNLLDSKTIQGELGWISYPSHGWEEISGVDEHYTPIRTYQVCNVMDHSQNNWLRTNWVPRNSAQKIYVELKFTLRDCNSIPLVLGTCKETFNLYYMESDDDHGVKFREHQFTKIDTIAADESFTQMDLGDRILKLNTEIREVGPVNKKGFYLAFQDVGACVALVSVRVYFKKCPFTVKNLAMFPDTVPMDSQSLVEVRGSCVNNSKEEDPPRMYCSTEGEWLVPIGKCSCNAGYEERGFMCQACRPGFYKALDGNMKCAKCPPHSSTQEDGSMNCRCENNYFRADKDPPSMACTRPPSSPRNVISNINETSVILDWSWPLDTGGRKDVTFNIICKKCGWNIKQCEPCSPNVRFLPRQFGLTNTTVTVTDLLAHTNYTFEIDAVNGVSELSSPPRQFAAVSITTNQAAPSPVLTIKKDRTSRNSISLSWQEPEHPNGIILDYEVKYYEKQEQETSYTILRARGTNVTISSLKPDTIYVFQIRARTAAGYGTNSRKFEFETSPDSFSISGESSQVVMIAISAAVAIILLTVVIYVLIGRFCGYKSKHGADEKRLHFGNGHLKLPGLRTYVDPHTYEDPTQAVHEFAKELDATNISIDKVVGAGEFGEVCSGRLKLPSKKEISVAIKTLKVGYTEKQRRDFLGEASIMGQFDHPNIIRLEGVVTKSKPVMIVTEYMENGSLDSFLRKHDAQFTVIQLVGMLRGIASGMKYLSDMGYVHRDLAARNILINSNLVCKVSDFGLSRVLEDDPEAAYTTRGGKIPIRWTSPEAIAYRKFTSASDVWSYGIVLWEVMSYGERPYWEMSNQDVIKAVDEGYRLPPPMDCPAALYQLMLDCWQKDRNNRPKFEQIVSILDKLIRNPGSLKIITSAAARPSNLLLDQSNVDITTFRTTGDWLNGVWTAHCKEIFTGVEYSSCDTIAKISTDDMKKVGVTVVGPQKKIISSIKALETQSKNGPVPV
measured-metric: IC50

Query string: Tell me the measured IC50 of `N#CCNC(=O)c1ccc(-c2ccnc(Nc3ccc(N4CCOCC4)cc3)n2)cc1` , please.
Result string: > 1000 nM

====

- subject-of-test: Calcium/calmodulin-dependent protein kinase type 1D (Homo sapiens, UniProt Q8IU85)
- Sequence (Q8IU85 whole entry): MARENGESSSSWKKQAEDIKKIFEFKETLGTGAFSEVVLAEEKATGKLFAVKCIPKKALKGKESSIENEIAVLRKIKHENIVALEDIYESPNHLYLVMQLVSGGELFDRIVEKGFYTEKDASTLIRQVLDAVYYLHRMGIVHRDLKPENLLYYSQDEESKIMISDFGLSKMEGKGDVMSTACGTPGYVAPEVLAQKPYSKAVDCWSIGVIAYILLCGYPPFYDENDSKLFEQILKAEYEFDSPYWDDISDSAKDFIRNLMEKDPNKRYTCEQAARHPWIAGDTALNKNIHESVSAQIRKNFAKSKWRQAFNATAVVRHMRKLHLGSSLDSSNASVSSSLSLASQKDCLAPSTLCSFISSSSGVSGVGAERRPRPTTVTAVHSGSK
- test-details: Inhibition of CAMK1 delta (unknown origin)
measured-metric: IC50

Query string: Tell me the measured IC50 of `N#CCNC(=O)c1ccc(-c2ccnc(Nc3ccc(N4CCOCC4)cc3)n2)cc1` , please.
Result string: < 1000 nM

====

- subject-of-test: Serine/threonine-protein kinase D2 (Homo sapiens, UniProt Q9BZL6)
- Sequence (Q9BZL6 whole entry): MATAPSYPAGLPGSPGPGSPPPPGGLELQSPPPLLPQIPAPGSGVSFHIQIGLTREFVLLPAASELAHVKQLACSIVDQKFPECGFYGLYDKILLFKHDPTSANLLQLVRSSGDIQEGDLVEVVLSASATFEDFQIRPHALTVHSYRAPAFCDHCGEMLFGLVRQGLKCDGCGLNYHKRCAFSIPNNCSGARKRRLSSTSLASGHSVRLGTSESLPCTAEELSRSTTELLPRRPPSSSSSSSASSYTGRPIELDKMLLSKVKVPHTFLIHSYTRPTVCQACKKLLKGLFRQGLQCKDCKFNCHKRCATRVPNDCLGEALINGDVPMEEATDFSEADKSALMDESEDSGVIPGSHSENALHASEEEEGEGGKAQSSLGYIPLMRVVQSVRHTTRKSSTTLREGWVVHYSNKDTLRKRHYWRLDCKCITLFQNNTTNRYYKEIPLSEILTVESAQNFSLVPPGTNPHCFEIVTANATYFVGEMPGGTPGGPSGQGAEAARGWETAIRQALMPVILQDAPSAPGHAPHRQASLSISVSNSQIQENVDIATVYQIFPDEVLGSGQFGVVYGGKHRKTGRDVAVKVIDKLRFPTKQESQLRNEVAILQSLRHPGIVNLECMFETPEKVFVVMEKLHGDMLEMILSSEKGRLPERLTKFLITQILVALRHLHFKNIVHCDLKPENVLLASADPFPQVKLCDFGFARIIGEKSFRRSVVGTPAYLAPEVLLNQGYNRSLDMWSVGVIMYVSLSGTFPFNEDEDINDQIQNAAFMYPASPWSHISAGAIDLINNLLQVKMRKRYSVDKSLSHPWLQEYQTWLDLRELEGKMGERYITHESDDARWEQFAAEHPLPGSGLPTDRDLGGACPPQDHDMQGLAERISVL
- test-details: Inhibition of PRKD2 (unknown origin)
pIC50: −log10 of the molar value.
measured-metric: pIC50

Query string: Item `N#CCNC(=O)c1ccc(-c2ccnc(Nc3ccc(N4CCOCC4)cc3)n2)cc1` with Serine/threonine-protein kinase D2 (Homo sapiens, UniProt Q9BZL6) - pIC50?
Result string: > 6.00

====

- subject-of-test: Cyclin-dependent kinase 1/cyclin B1 (Homo sapiens)
- Sequence (P06493 whole entry): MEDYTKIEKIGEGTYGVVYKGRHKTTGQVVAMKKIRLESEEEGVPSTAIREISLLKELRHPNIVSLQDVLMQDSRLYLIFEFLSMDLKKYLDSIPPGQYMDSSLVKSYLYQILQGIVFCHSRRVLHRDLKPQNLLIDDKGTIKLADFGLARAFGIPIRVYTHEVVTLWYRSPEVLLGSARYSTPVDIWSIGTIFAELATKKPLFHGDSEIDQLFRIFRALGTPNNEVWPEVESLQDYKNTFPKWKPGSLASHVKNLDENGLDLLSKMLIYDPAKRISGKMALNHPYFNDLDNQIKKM
- Sequence (P14635 whole entry, further chain): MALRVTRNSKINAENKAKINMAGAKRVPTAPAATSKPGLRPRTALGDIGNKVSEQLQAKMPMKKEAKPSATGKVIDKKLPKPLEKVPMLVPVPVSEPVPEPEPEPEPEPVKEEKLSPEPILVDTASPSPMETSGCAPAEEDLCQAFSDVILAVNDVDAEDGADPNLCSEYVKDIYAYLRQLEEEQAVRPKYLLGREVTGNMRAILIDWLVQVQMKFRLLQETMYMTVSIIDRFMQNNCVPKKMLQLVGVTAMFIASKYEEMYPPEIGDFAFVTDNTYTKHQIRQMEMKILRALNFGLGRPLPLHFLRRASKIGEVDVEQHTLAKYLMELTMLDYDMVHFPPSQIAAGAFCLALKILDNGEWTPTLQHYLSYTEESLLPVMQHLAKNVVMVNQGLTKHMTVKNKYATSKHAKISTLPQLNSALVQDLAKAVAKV
- test-details: Inhibition of CDK1/cyclin B (unknown origin)
measured-metric: IC50

Query string: Tell me the measured IC50 of `N#CCNC(=O)c1ccc(-c2ccnc(Nc3ccc(N4CCOCC4)cc3)n2)cc1` , please.
Result string: < 1 µM

====

- subject-of-test: Mitogen-activated protein kinase 3 (Homo sapiens, UniProt P27361)
- Sequence (P27361 whole entry): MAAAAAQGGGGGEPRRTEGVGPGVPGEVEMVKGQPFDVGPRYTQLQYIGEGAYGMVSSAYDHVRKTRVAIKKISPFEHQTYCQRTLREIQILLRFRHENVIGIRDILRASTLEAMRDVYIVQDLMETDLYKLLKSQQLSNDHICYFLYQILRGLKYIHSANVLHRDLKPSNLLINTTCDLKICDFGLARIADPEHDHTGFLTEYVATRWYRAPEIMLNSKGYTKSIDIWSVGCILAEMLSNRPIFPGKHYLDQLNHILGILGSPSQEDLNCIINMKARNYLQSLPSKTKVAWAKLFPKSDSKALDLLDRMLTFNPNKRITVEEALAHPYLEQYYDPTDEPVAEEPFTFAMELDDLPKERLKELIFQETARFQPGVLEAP
- test-details: Inhibition of MAPK3 (unknown origin)
pIC50: −log10 of the molar value.
measured-metric: pIC50

Query string: Item N#CCNC(=O)c1ccc(-c2ccnc(Nc3ccc(N4CCOCC4)cc3)n2)cc1 [MOMELOTINIB] with Mitogen-activated protein kinase 3 (Homo sapiens, UniProt P27361) - pIC50?
Result string: < 6.00

====

- subject-of-test: Calcium/calmodulin-dependent protein kinase type IV (Homo sapiens, UniProt Q16566)
- Sequence (Q16566 whole entry): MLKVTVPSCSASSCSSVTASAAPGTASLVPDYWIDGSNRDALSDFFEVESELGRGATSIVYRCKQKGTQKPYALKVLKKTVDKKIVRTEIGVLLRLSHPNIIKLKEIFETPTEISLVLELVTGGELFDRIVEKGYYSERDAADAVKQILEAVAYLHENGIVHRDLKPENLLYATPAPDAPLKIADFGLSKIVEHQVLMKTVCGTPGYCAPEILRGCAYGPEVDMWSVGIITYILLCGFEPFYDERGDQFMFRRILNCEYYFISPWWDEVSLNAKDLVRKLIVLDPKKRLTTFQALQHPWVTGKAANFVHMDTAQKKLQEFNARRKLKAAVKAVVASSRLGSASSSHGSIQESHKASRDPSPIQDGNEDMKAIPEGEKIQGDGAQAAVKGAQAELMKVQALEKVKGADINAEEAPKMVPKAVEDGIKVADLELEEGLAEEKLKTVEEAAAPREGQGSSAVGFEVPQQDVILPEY
- test-details: Inhibition of CAMK4 (unknown origin)
measured-metric: IC50

Query string: Tell me the measured IC50 of N#CCNC(=O)c1ccc(-c2ccnc(Nc3ccc(N4CCOCC4)cc3)n2)cc1 [MOMELOTINIB] , please.
Result string: > 1000 nM

====

- subject-of-test: Ephrin type-B receptor 3 (Homo sapiens, UniProt P54753)
- Sequence (P54753 whole entry): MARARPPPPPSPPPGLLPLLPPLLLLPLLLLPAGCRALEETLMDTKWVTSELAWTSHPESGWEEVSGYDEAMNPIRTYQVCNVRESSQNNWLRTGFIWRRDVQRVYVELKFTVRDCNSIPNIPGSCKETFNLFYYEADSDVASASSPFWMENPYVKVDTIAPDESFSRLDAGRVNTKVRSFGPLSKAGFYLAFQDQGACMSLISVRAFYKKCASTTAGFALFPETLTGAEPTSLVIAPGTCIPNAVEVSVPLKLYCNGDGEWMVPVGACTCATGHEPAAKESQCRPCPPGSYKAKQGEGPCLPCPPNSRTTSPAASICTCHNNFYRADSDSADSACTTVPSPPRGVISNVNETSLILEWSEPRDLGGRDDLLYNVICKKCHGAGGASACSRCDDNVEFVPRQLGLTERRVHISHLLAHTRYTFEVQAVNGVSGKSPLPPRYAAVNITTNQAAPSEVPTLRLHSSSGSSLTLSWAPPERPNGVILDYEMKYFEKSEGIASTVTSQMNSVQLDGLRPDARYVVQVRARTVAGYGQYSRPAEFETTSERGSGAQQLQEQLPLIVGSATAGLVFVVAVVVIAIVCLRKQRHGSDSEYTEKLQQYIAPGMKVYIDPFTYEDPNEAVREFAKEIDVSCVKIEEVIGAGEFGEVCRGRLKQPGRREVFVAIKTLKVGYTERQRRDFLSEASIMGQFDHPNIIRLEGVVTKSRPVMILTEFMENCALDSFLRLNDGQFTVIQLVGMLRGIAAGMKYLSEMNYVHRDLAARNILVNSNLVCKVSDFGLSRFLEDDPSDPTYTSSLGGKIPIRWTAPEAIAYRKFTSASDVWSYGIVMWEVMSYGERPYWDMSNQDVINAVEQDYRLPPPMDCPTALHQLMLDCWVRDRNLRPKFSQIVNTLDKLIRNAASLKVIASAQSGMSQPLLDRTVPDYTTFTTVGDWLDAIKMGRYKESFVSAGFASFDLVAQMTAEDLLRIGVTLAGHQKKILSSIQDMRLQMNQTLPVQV
pIC50: −log10 of the molar value.
measured-metric: pIC50

Query string: Item N#CCNC(=O)c1ccc(-c2ccnc(Nc3ccc(N4CCOCC4)cc3)n2)cc1 [MOMELOTINIB] with Ephrin type-B receptor 3 (Homo sapiens, UniProt P54753) - pIC50?
Result string: < 6.00

====

- subject-of-test: Receptor tyrosine-protein kinase erbB-2 (Homo sapiens)
- Sequence (P04626 whole entry): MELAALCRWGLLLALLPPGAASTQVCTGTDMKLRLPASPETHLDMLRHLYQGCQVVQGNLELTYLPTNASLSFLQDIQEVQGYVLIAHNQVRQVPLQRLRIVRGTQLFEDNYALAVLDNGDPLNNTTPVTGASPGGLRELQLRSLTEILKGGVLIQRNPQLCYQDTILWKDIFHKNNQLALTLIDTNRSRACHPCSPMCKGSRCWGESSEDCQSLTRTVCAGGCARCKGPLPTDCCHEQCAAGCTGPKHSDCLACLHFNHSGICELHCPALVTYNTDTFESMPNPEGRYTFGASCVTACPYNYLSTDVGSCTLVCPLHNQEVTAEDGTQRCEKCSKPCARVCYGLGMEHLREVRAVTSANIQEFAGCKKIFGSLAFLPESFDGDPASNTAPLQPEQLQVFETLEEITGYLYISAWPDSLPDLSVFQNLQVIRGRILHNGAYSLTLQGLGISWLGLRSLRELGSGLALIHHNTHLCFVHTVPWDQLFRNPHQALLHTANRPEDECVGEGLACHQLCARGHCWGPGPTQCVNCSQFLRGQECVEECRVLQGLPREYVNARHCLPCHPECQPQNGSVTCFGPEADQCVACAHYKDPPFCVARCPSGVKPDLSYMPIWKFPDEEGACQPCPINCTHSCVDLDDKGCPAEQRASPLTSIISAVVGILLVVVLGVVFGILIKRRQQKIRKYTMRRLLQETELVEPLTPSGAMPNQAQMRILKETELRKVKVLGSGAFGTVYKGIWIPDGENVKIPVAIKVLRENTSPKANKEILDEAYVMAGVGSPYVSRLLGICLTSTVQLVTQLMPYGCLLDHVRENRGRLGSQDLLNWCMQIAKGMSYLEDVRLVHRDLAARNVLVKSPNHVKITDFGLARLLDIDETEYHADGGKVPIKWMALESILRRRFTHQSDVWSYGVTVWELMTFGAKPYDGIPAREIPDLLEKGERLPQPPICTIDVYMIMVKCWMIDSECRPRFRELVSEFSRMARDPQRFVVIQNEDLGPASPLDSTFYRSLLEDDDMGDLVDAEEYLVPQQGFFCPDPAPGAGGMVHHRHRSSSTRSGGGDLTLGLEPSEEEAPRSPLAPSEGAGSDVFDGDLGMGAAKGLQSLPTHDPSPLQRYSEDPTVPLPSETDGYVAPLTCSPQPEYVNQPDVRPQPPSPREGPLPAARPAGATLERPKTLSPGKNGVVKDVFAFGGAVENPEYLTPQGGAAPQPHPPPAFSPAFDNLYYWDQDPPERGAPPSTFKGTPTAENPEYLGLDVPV
measured-metric: IC50

Query string: Item `N#CCNC(=O)c1ccc(-c2ccnc(Nc3ccc(N4CCOCC4)cc3)n2)cc1` with Receptor tyrosine-protein kinase erbB-2 (Homo sapiens) - IC50?
Result string: > 1 µM

====

- subject-of-test: Casein kinase II subunit alpha (Homo sapiens)
- test-details: Inhibition of CSNK2A1 (unknown origin)
pIC50: −log10 of the molar value.
measured-metric: pIC50

Query string: Tell me the measured pIC50 of N#CCNC(=O)c1ccc(-c2ccnc(Nc3ccc(N4CCOCC4)cc3)n2)cc1 [MOMELOTINIB] , please.
Result string: < 6.00

====

- subject-of-test: Cyclin-dependent kinase 5/CDK5 activator 1 (Homo sapiens)
- Sequence (Q00535 whole entry): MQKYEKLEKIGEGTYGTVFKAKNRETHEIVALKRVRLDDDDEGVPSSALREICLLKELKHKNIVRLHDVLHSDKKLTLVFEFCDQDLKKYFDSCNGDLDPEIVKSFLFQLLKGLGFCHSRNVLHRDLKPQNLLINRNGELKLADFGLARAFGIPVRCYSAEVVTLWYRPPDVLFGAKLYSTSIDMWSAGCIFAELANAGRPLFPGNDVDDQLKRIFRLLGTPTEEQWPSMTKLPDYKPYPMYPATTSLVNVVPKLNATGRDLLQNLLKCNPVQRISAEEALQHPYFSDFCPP
- Sequence (Q15078 whole entry, further chain): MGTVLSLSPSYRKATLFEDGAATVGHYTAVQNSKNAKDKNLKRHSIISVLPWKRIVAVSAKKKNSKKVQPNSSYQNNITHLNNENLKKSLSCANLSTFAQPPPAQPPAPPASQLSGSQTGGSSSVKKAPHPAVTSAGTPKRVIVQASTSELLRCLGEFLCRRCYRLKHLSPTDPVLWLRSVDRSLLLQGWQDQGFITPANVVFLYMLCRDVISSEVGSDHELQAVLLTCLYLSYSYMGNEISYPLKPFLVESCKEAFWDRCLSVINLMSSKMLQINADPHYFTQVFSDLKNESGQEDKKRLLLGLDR
- test-details: Inhibition of CDK5/p35 (unknown origin)
measured-metric: IC50

Query string: Tell me the measured IC50 of `N#CCNC(=O)c1ccc(-c2ccnc(Nc3ccc(N4CCOCC4)cc3)n2)cc1` , please.
Result string: < 1000 nM

====

- subject-of-test: Protein kinase C beta type (Homo sapiens, UniProt P05771)
pIC50: −log10 of the molar value.
measured-metric: pIC50

Query string: Tell me the measured pIC50 of `N#CCNC(=O)c1ccc(-c2ccnc(Nc3ccc(N4CCOCC4)cc3)n2)cc1` , please.
Result string: < 6.00
